System: HS 578T breast
Experiment: NCI-60 one-dose screen, 48 h (100 = growth as untreated, 0 = no growth, -100 = all killed)
Settings: 10 µM unless noted
This is part of a sample that, as a whole, favours compounds with a hit. Of some 83,000 tested, about 20% had one in any assay.
Note to self: growth under 90% means true, ties and anything higher get false.

• COc1ccc2nc3ccccc3c(NCc3ccc(Cl)cc3)c2c1 = true
• Nc1nc(N)c2cc(NCc3ccc(Cl)c(Cl)c3)ccc2n1 = true
• Cn1c(=O)c2c(nc(N/N=C/c3ccccc3Cl)n2C)n(C)c1=O = false
• O=C(NO)c1ccc(CNc2cccc3nc(C4CC4)n(-c4ccccc4)c(=O)c23)cc1 = true
• O=C(CSc1nc2c(n1Nc1ccccc1)-c1ccccc1SC2)Nc1nccs1 = false
• NC(=S)N1N=C(c2ccc(Cl)cc2)CC1c1cc2ccccc2[nH]c1=O (centres undefined) = false
• O=S1(=O)NCCN1CCNc1nccc(-c2c(-c3cccc(O)c3)nc3sccn23)n1 = false
• CCN(CC)CCNC(=O)C(F)(F)C(F)(F)C(F)(F)F = false

----------
Each item that follows carries a reported growth.
System: CCRF-CEM leukemia
Experiment: NCI-60 one-dose screen, 48 h (100 = growth as untreated, 0 = no growth, -100 = all killed)
Settings: 10 µM unless noted
The panel holds about 83,000 compounds, 20% with a hit somewhere; the sample as a whole holds those more often.
Measurement type: growth (%)

* CC(C)[C@@]12C[C@@H](OC(=O)C3CO3)[C@@](C)(O1)[C@@H]1CC[C@@H](C)[C@H]1[C@@H]2OC(=O)/C=C/c1ccccc1 (some centres undefined) | 88.5
* COc1cc(C2CC(=O)Nc3c2cnn3C)cc(OC)c1OC (centres undefined) | 114
* C=CCCCCOc1cccc(/C=C2\N=C3SCCCN3C2=O)c1 | 121
* CC(=O)Oc1c(Cl)c(Cl)c(Cl)c(Cl)c1Cl | 83.2
* Cn1c(=O)c2c(nc(N/N=C/c3ccccc3Cl)n2C)n(C)c1=O | 94.5
* O=C(Nc1ccc(Cl)cc1)c1cc(-c2ccc(Cl)cc2)c2sc(=O)[nH]c2n1 | 5.46
* CCCCCCCCCCCCNC(=O)N[C@H](C(=O)N[C@H]1/C=C/OCCNC(=O)/C=C/[C@H](C(C)C)NC1=O)C(C)C | 40.6
* CCCCSc1ncnc2c1ncn2C1CCCCO1 (centres undefined) | 99.6
* CNC(=O)c1c(NC(=O)c2ccc(C(C)C)cc2)sc2c1CCC(=O)C2 | 1.96
* C=C1C[C@@]2(C)C(CC[C@]3(C)C2CC=C2C4CC(C)(C)C[C@@H](OC(=O)/C(C)=C\C)[C@]4(C(=O)O)CC[C@]23C)C(C)(C)C1=O (some centres undefined) | 2.34
* CC(C)=CC[C@@H]1CC2(CC=C(C)C)C(=O)C(OC3(C(=O)c4ccccc4)C(=O)C4(CC=C(C)C)C[C@@H](CC=C(C)C)C(C)(C)C(CC=C(C)C)(C4=O)C3=O)(C(=O)c3ccccc3)C(=O)C(CC=C(C)C)(C2=O)C1(C)C (some centres undefined) | 3.78
* CCN1C(=O)/C(=C/N2N=C(c3ccc(Cl)cc3)CC2c2ccc(OC)cc2)SC1=S (centres undefined) | 100
* Clc1ccc(C2=NN[C@H](c3cn(-c4ccccc4)nc3-c3ccccc3)C2)cc1 | 78.3
* CCN(CC)c1ccc(/C=N/N=C(N)N)cc1 | 36
* CC(C)c1nc2ccccc2n1CC(=O)N/N=C/c1cccc(O)c1 | 94.9
* COc1cc2ncnc(Nc3ccc(S(=O)(=O)Nc4nccs4)cc3)c2cc1OCCCN1CCOCC1 | 105
* CS(=O)(=O)c1ccc(C(=O)N2N=C(c3ccccc3)CC2c2ccc3c(c2)OCO3)cc1 (centres undefined) | 105
* CC(C)(C)OC(=O)N1CCCN(CCNc2nccc(-c3c(-c4cccc(O)c4)nc4sccn34)n2)S1(=O)=O | 75.8
* CCOC(=O)C1C(=O)C=C(c2cc(OC)c(OC)c(OC)c2)CC1c1sc(N(C)Cc2ccccc2)nc1Cl (centres undefined) | 82

----------
Tested on: CCRF-CEM leukemia
Assay: NCI-60 one-dose screen, 48 h
Settings: 10 µM unless noted
About 83,000 compounds went through this panel and 20% of them were active in at least one assay; those are over-represented in the sample as a whole. Activity calls are given as the source filed them. The calls were made as follows: active = growth percent below 10; inactive = the rest.
Labels: TRUE for active, FALSE for inactive

• COc1ccc(CC2c3cc(OC)c(OC)cc3CC[N+]2(C)CCC(=O)OCCCCCOC(=O)CC[N+]2(C)CCc3cc(OC)c(OC)cc3C2Cc2ccc(OC)c(OC)c2)cc1OC (centres undefined) = FALSE
• COc1cnc2c(c1)C(=O)c1c-2n(CCCN2CCN(C)CC2)c(=O)c2cc(Cl)ccc12 = TRUE
• C=C1C(=O)O[C@H]2[C@H]1CC/C(COC(=O)NCc1c[nH]c3ccc(OC)cc13)=C\CC[C@@]1(C)O[C@@H]21 = TRUE
• CC(C)(C)[Si](C)(C)OC1[C@@H](O[Si](C)(C)C(C)(C)C)[C@@H](CNC(=O)NC(=O)NC(=O)CI)O[C@H]1n1cnc2c(NC(=O)Nc3ccccc3)ncnc21 (some centres undefined) = TRUE

----------
Tested on: MDA-MB-231 breast
Assay: NCI-60 one-dose screen, 48 h
Conditions: 10 µM unless noted
Compounds without any hit were thinned out: in the full panel of roughly 83,000, 20% have a hit. Active and inactive are the calls of the source. Rule for the calls: active = growth percent below 10; inactive = the rest.
Labels: active, inactive

* CC1=CC(=O)OC1C/C=C(\C)CCC1[C@@]2(C)CCC[C@@](C)(C(=O)O)C2CC[C@@]1(C)O (some centres not stated) | inactive
* OC(COCc1ccccc1)COCc1ccccc1 | inactive
* COc1cc(CN(c2ccc(C)cc2)C2OC(=O)c3ccccc32)cc(OC)c1OC (configuration not stated) | inactive
* COC1(OC)C2(Cl)CCC1(Cl)C(Cl)=C2Cl | inactive
* C#Cc1cccc(Nc2nc3cc([N+](=O)[O-])ccc3nc2Nc2ccc(O)cc2)c1 | active
* CC[C@]1(O)C[C@H]2CN(CCc3c([nH]c4ccccc34)C(C(=O)OC)(c3cc4c(cc3OC)N(C)[C@H]3[C@@](O)(C(=O)OC)[C@H](OC(C)=O)[C@]5(CC)[C@@H]6C[C@@H]6CN6CC[C@]43[C@@H]65)C2)C1 (some centres not stated) | active
* Clc1ccc(-c2cnc3c(-c4ccnc(N5CCNCC5)c4)cnn3c2)cc1 | active

----------
Each item that follows carries a reported growth.
Tested on: MDA-MB-231 breast
Test: NCI-60 one-dose screen, 48 h (100 = growth as untreated, 0 = no growth, -100 = all killed)
Conditions: 10 µM unless noted
Compounds without any hit were thinned out: in the full panel of roughly 83,000, 20% have a hit.
Measurement type: growth (%)

- c1ccc2oc(-c3cnc4nonc4n3)cc2c1: 87.9
- CCCCOc1nc2ccc(C)cc2cc1/C=C/C(=O)/C=C(O)/C=C/c1cc2cc(C)ccc2nc1OCCCC: 103
- Cc1csc(N/N=C/c2ccncc2)n1: 102
- CCN(C(=O)CCl)C(C)(C)C(SSSC(c1ccc(Cl)cc1)C(C)(C)N(CC)C(=O)CCl)c1ccc(Cl)cc1 (configuration not stated): 73.7
- COc1ccc(-c2cc(C(=O)Nc3ccc(C)cc3)nc3[nH]c(=O)sc23)cc1: 86.3
- O=C(Nc1ccc(Cl)cc1)c1cc(-c2ccc(Cl)cc2)c2sc(=O)[nH]c2n1: -30.9
- Cc1ccc(C)c2c1SC1=NNC(Oc3ccc(Cl)cc3)=C(C#N)C(=N)N12: 99.6
- NC(=O)N/N=C\c1ccc([N+](=O)[O-])o1: 122
- CC1=C(/C=C/C(C)=C/C=C(C(=O)O)\C(C)=C\C(=O)O)C(C)(C)CCC1: 98.6
- Oc1c(C(Nc2ccccc2Br)c2ccccc2)ccc2cccnc12 (configuration not stated): 37.7
- c1ccc(CCn2cccc2)nc1: 94.9
- O=C1CCCN1C1CCN2CCCc3cccc1c32 (configuration not stated): 101
- c1csc(-c2cnc3nonc3n2)c1: 82
- CC(C)c1nc2ccccc2n1CC(=O)N/N=C/c1cccc(O)c1: 93.4
- C=CC(=O)N1CN(C(=O)C=C)CN(C(=O)C=C)C1: 103
- C=C1C(=O)O[C@H]2[C@H]1CC/C(COC(=O)NCc1cccc(OC)c1)=C\CC[C@@]1(C)O[C@@H]21: 64.4
- CC(C)(C)c1ccc(C(=O)Nc2sc3cc(O)ccc3c2C(N)=O)cc1: 76

----------
Test system: UACC-257 melanoma
Experiment: NCI-60 one-dose screen, 48 h (100 = growth as untreated, 0 = no growth, -100 = all killed)
Conditions: 10 µM unless noted
Compounds without any hit were thinned out: in the full panel of roughly 83,000, 20% have a hit.
Record y whenever growth is at 80% or higher; record n when lower.

• COc1ccccc1CNCCCN1C(=O)c2ccc3c4c(ccc(c24)C1=O)C(=O)N(CCCNCCCN)C3=O = n
• NS(=O)(=O)c1ccc(CCn2c(SCC(=O)N/N=C/c3ccccc3O)nc3ccccc3c2=O)cc1 = n
• Oc1ccc(-c2nnc3c4[nH]ccc4ncn23)cc1 = y
• Nc1c(C(=O)Nc2ccccc2)sc2nc3c(cc12)C(=O)CCC3 = n
• COc1cc(/C=C2\CN(C(=O)OC(C)(C)C)C/C(=C\c3ccc(O)c(OC)c3)C2=O)ccc1O = n
• COc1cccc(N2CCN(c3ncnc4cc[nH]c34)CC2)c1 = n
• C=C1C(=O)O[C@H]2[C@H]1CC/C(COC(=O)NCc1cccc(OC)c1)=C\CC[C@@]1(C)O[C@@H]21 = n
• Fc1ccc(-c2cnc3nonc3n2)c(F)c1 = y
• CCc1onc(-c2ccc(OC)cc2)c1-c1ccccc1OCCN(CC)CC = y
• CC(C)CC(=O)C(CCc1ccccn1)C(C)C (centres undefined) = y
• CCCCc1nc(Cl)c(C2CC(c3ccc(S(N)(=O)=O)cc3)=NN2c2ccc(C#N)cc2)[nH]1 (centres undefined) = y
• CC(=O)Oc1ccccc1C(=O)Nc1ncc([N+](=O)[O-])s1 = n
• COc1nccc2c(Sc3ccccc3)nc(N)nc12 = y
• C/C(=N\Nc1ccc([N+](=O)[O-])cn1)c1ccc(N)cc1 = y
• CCOC(=O)C1OC2(CCCC2)OC1C(=O)OCC (centres undefined) = y
• CCN1C(=O)N(CC)C2C1N=C(SC)N2/N=C/C=C/c1ccccc1OC (centres undefined) = n
• COc1ccc2c(c1)sc1nc(-c3ccccc3)c(-c3cccc4ccccc34)n12 = n
• Cc1cc(N)cc(C)c1-c1c(Br)cc(N)cc1Br = n
• COc1cc(C2CC(c3ccc(C)cc3)=NN2C=O)ccc1Oc1nc2c(c(=O)n(C)c(=O)n2C)n1C (centres undefined) = n
• COc1cccc(-c2nc3sccn3c2-c2ccnc(NCCN3CCCNS3(=O)=O)n2)c1 = n
• O=C(NNC(=O)c1cccc(Cl)c1)c1ccccc1 = y
• COc1cnc2c(c1)C(=O)c1c-2n(CCCN2CCNCC2)c(=O)c2cc(Cl)ccc12 = n
• CC(C)c1ccc2c(c1)CCC1C2CCCC1(C)NCc1ccccc1 (centres undefined) = n
• O=S(=O)(Cc1ccc(Cl)cc1Cl)c1ccc(Cl)cc1 = n
• COc1ccccc1-[n+]1cc(-c2ccc(-c3ccccc3)cc2)n2c1CCCCC2 = n
• O=C(Nc1ccc([N+](=O)[O-])cc1)c1cc2ccccc2cc1O = n
• O=[N+]([O-])c1ccc(SSc2ccc([N+](=O)[O-])cc2Cl)c(Cl)c1 = y
